Reference for the values: patent US20030068675

tested_system: T1, ZFP SBS#698 (synthetic)
T1 chain: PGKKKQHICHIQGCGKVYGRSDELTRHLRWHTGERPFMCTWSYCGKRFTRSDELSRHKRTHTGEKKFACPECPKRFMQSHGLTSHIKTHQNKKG
experimental_protocol: EMSA
condition_summary: tags: MBP fusion
parameter_measured: Kd
Give me the value, and tack the unit on after it.

Prompt line: Item under review: TGAGCGGCGG (dsDNA) DNA 1: TGAGCGGCGG DNA 2: CCGCCGCTCA . Reported Kd?
Response line: 0.3 µM
